# TARGET_UNDER_TEST: T1, human TMEM106B (human, UniProt Q9NUM4 2-274)
# T1 construct: full-length, transiently expressed on HEK293 cells, or natively expressed on HeLa, U251 and A549 cells (the cell is named under assay); also the source of the Pepscan peptides; also called huTMEM106B; huTMEM
# MEASUREMENT_DESCRIPTION: FACS HEK+huTMEM 10 ug/ml;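 further: flow cytometric binding of purified mouse IgG antibodies to HEK293 cells transiently expressing human TMEM106B, read as median fluorescence intensity on live cells with propidium iodide-positive cells excluded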

BINDER	MFI
TM-19 (antibody, V domains shown) VH: DVQLQQSGAELVRPGASVKLSCTASGFNIKDYYMYWVKQRPEQGLEWIGRIDPEDGDTENAPKFRGMATMTADTSSNTAYLQLNSLTSEDTAVYYCTTRIGNLYHVMDYWGHGTSVTVSS VL: DVLMTQTPLSLPVSLGDQASISCRSSQSIVHSNGNTYLEWYLQKPGQAPKLLIDKVFNRFSGVPDRFSGSGSGTDFTLKISRVEAEDLGVYYCFQGSHVPFTFGSGTKLEIK	79000 MFI
TM-23 (antibody, V domains shown) VH: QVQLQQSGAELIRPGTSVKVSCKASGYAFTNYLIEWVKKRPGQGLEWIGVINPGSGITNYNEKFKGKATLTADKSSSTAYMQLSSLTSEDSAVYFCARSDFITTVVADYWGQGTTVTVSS VL: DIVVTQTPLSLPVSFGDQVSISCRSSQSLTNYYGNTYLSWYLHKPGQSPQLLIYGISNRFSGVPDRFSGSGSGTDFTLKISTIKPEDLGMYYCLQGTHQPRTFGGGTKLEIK	12400 MFI
